Where do the numbers come from? From PubChem BioAssay (NCI).

Test system: SK-MEL-2 melanoma
Test: NCI-60 one-dose screen, 48 h (100 = growth as untreated, 0 = no growth, -100 = all killed)
Details: 10 µM
Procedure: Growth inhibition of the SK-MEL-2 human tumor cell line is measured as a screen for anti-cancer activity. Cells are grown in 96 well plates and exposed to the test compound for 48 hours. Compounds are tested at a single concentration, which is 10^-5 M for most compounds. The reported endpoint is percent growth (GI% or GIPRCNT), where numbers from 0 - 100% represent growth inhibition, and numbers from -100% - 0 represent cell death. For example, a value of 40 represents 60% growth inhibition. […]
Compounds without any hit were thinned out: in the full panel of roughly 83,000, 20% have a hit. Active and inactive are the calls of the source. Rule for the calls: active = growth percent below 10; inactive = the rest.
experimental_readout: growth

Field: example entries. Status: answers known.
[
  {
    "molecule": "Cc1c(Cl)cccc1NC(=O)CN1CCOCC1",
    "experimental_readout": "growth",
    "endpoint_result": "93.5% (inactive)"
  },
  {
    "molecule": "O=S(=O)(O)c1ccc(Cl)cc1",
    "experimental_readout": "growth",
    "endpoint_result": "95.9% (inactive)"
  },
  {
    "molecule": "COc1cc2cc(Oc3ccc(NC(=O)Nc4ccc(Cl)c(Cl)c4)cc3)c(C)nc2cc1OC",
    "experimental_readout": "growth",
    "endpoint_result": "-7.82% (active)"
  }
]

The measured growth associated with Cc1ccc(NCCN(C)CC(C)O)c2c(=O)c3ccccc3sc12 (stereo unspecified) reads 90.6% (inactive)

The measured growth associated with "CN(C)CCOc1ccc(-c2nc3sccn3c2-c2ccnc(S(C)(=O)=O)n2)cc1" reads 111% (inactive)

The measured growth associated with "C(=N\Nc1ncnc2sc3c(c12)CCNC3)/c1cccc2ccccc12" reads 109% (inactive)

The measured growth associated with "COc1cc(-c2nn(-c3cccc(NC(=O)NCCNS(=O)(=O)c4ccc(Cl)cc4)c3)cc2-c2ccncc2)ccc1Cl" reads 2.83% (active)

The measured growth associated with "Cc1c2c[n+](C(C)C)ccc2c(C)c2c1[nH]c1ccccc12" reads 12.3% (inactive)

The measured growth associated with CN1C(=O)C2(Nc3cc(Cl)ccc3S2)c2cc(Cl)ccc21 (stereo unspecified) reads 108% (inactive)

The measured growth associated with COc1cc2ncnc(NC3CCC(O)CC3)c2cc1OC (stereo unspecified) reads 97.1% (inactive)

The measured growth associated with "Nc1nccc(OCCO)n1" reads 99.5% (inactive)

----------
tested on: ACHN renal; experiment: NCI-60 one-dose screen, 48 h (100 = growth as untreated, 0 = no growth, -100 = all killed); settings: 10 µM
Compounds without any hit were thinned out: in the full panel of roughly 83,000, 20% have a hit.
The recorded growth of each item maps onto one of these classes: group A (below 30%), group B (30% to below 90%), group C (90% or more)

Example entries begin here.
[
  {
    "compound": "COc1cc(NC(=O)Nc2cnc(Nc3ccc(N4CCOCC4)cc3)nc2Oc2cccc(OC)c2)cc(OC)c1",
    "label_value": "group B"
  },
  {
    "compound": "O=C(CSc1nnc(-c2cccnc2SCc2ccccc2)o1)Nc1nc(Cl)cc(Cl)n1",
    "label_value": "group C"
  },
  {
    "compound": "CNC(=O)c1cn2c3c(c(N4CCN(C)CC4)c(F)cc3c1=O)OC[C@@H]2C",
    "label_value": "group C"
  },
  {
    "compound": "COc1cc(Cc2cc(-c3ccccc3)n[nH]c2=O)cc(OC)c1OC",
    "label_value": "group B"
  },
  {
    "compound": "Nc1ncc(-c2cnn(C3CCNCC3)c2)cc1-c1nc2ccccc2o1",
    "label_value": "group A"
  }
]

Task item: GET /class?item= COc1cc(C2C(C#N)=C(N)Oc3cc(O)ccc32)cc(OC)c1OC (stereo not given)
Reply: group B

Task item: GET /class?item= "CC(C)(C)OC(=O)N1CCc2c(sc3ncnc(N/N=C/c4cccc(Br)c4)c23)C1"
Reply: group B

Task item: GET /class?item= "CNS(=O)(=O)Oc1ccc(-c2sc3cc(OS(=O)(=O)NC)ccc3c2C(=O)c2ccc(OCCN3CCCCC3)cc2)cc1"
Reply: group C

Task item: GET /class?item= "CC(C)(C)OC(=O)CN1CCc2c(sc3ncnc(N/N=C/c4ccccc4Br)c23)C1"
Reply: group B

Task item: GET /class?item= "CN(C)CCN(Cc1ccccc1)c1ccc2ccccc2n1"
Reply: group C

Task item: GET /class?item= "C[N+]1(CCCCC[N+]2(C)CCCC2)CCCC1"
Reply: group C
